Consider compounds characterized by their pIC50 with Sodium- and chloride-dependent glycine transporter 1 (Homo sapiens).
Sequence (P48067 whole entry): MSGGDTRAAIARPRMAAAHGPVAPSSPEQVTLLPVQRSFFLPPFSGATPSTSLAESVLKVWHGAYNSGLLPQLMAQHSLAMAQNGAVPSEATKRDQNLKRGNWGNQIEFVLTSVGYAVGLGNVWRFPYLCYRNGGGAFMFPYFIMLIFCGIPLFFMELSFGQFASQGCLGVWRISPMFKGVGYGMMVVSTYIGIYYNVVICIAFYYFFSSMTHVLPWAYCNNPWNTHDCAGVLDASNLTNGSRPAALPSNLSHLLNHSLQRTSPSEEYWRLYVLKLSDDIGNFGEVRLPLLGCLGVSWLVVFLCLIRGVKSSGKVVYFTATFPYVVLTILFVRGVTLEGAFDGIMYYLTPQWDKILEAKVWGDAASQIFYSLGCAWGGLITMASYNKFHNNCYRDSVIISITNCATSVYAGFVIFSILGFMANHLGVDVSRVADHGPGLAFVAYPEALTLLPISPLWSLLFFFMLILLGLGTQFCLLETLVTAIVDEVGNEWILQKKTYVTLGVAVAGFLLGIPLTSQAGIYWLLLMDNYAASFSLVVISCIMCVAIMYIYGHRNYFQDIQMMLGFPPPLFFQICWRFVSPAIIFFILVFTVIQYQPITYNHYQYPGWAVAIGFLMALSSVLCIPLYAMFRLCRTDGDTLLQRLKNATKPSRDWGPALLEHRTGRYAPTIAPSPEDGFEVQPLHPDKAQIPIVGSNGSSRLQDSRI
# pIC50 = -log10(concentration in molar units)

{"columns": ["SUBSTANCE SMILES", "TARGET OR SYSTEM", "pIC50"],
 "data": [
  ["CCCS(=O)(=O)N1CCC(CNC(=O)c2ccc(Cl)cc2Cl)(C(=O)C2CC2)CC1", "Sodium- and chloride-dependent glycine transporter 1 (Homo sapiens)", 6.33],
  ["CCCS(=O)(=O)N1CCC(CNC(=O)c2c(F)cccc2Cl)(C(=O)N2CCOCC2)CC1", "Sodium- and chloride-dependent glycine transporter 1 (Homo sapiens)", 7.90],
  ["CCCS(=O)(=O)N1CCC(CNC(=O)c2ccc(Cl)cc2Cl)(C(=O)NCC2(C)COC2)CC1", "Sodium- and chloride-dependent glycine transporter 1 (Homo sapiens)", 7.16],
  ["CCCS(=O)(=O)N1CCC(CNC(=O)c2c(F)ccc(Cl)c2F)(C(=O)N2CCOCC2)CC1", "Sodium- and chloride-dependent glycine transporter 1 (Homo sapiens)", 8.08]
]}

Switching to the query record.
Kindly state the measured pIC50 obtained for "CCCS(=O)(=O)N1CCC(CNC(=O)c2ccc(Cl)cc2Cl)(C(=O)NCC)CC1" with Sodium- and chloride-dependent glycine transporter 1 (Homo sapiens).
6.29

---

- PROTOCOL DESCRIPTION: Partition coefficient, log P of the compound
- Format: physicochemical
- DETAILS: octanol/water
Quick reference for logP among some molecules

Worked examples follow.
{"columns": ["SUBSTANCE SMILES", "logP"],
 "data": [
  ["CCCS(=O)(=O)N1CCC(CNC(=O)c2ccccc2OC(F)(F)F)(C(=O)N2CCOCC2)CC1", "< 1.4"],
  ["CCCS(=O)(=O)N1CCC(CNC(=O)c2c(F)cccc2Cl)(C(=O)N2CCOCC2)CC1", "< 1.4"],
  ["CCCS(=O)(=O)N1CCC(CNC(=O)c2ccc(Cl)cc2Cl)(C(=O)N2CCOCC2)CC1", 1.4],
  ["CCCS(=O)(=O)N1CCC(CNC(=O)c2cc(F)c(Cl)cc2Cl)(C(=O)N2CCOCC2)CC1", "< 1.4"]
]}

Tell me the measured logP of "CCCS(=O)(=O)N1CCC(CNC(=O)C2CC2)(C(=O)N2CCOCC2)CC1" , please.
< 1.4

---

- PROTOCOL DESCRIPTION: Clearance in rat
- Format: ADME, organism-based
- DETAILS: in vivo
Quick reference for clearance among some compounds
Provide only the numeric value, understood in mL/min/kg.

Worked examples follow.
{"columns": ["SUBSTANCE SMILES", "clearance (mL/min/kg)"],
 "data": [
  ["CCCS(=O)(=O)N1CCC(CNC(=O)C2CC2)(C(=O)N2CCOCC2)CC1", 18],
  ["CCCS(=O)(=O)N1CCC(CNC(=O)c2ccc(C(F)(F)F)cc2F)(C(=O)N2CCOCC2)CC1", 18],
  ["CCCS(=O)(=O)N1CCC(CNC(=O)c2ccc(Cl)cc2Cl)(C(=O)N2CCOCC2)CC1", 20.5]
]}

Tell me the measured clearance of "CCCS(=O)(=O)N1CCC(CNC(=O)c2ccc(F)cc2C(F)(F)F)(C(=O)N2CCOCC2)CC1" , please.
18

Tell me the measured clearance of "CCCS(=O)(=O)N1CCC(CNC(=O)CC)(C(=O)N2CCOCC2)CC1" , please.
18
